- Tested on: ATP;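 further: ATP exposure 15 min at 22 °C before imaging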
- METHOD: switch fluorescence ratio, 500 uM ATP over buffer (Cy3 cluster intensity, sum of 5 cycles each) (fold (ratio)); higher = stronger signal-on switching upon ATP binding; sequences stand for … in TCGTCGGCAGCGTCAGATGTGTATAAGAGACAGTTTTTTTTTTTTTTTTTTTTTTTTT…TC
- ASSAY_CONDITIONS: aptamer strand: ATP DNA aptamer (quencher-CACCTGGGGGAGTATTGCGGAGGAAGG + anchor), 100 nM annealed; ATP concentration: 500 uM
Kindly supply the reported switch fluorescence ratio values for the records listed here.
Form field (numeric): enter value without unit.

-- ask Item CGGGGGGCAG has what recorded switch fluorescence ratio?
-- reply 1.01

-- ask Need switch fluorescence ratio, item TATAAATTAG
-- reply 0.972

-- ask Quick one: switch fluorescence ratio for AGGGTTATAG ?
-- reply 0.982

-- ask Quick check: switch fluorescence ratio of AAGTGGGACC ?
-- reply 1.02

-- ask What measured switch fluorescence ratio goes with TCGAGGGCGG ?
-- reply 0.98

-- ask Which measured switch fluorescence ratio value corresponds to AAAATTGCAT ?
-- reply 0.993

-- ask # query: switch fluorescence ratio of entry TTTTTTTAGA
-- reply 0.995

-- ask I am curious: what switch fluorescence ratio value has been reported for TGGGGGACAT ?
-- reply 1.01

-- ask Any idea what switch fluorescence ratio was measured for TTTGTCTAGG ?
-- reply 0.994

-- ask Record request: switch fluorescence ratio value, item AGGGGTTTGT
-- reply 1.02

-- ask I am curious: what switch fluorescence ratio value has been reported for GGAACATGGG ?
-- reply 1

-- ask # input sequence: AGTAACAGTA ; wanted: its switch fluorescence ratio
-- reply 1

-- ask Please look up its switch fluorescence ratio: CGGTTGCTTG
-- reply 0.996

-- ask Returns the measured switch fluorescence ratio for the input sequence. Input: TTGGGGTGAG
-- reply 0.981

-- ask What does the record list as switch fluorescence ratio for TATATATTTT ?
-- reply 1.01

-- ask For ATGTTTGAAG , what is its reported switch fluorescence ratio?
-- reply 0.984

-- ask So what's the measured switch fluorescence ratio for this one? GCGAGAGGGA
-- reply 1.01

-- ask Give the measured switch fluorescence ratio of TAGCATGCGG .
-- reply 1.01

-- ask Could you tell me which switch fluorescence ratio is on file for TTACTTTGAG ?
-- reply 1.02

-- ask Quick one: switch fluorescence ratio of CCAATTTATG ?
-- reply 0.992

-- ask Quick one: switch fluorescence ratio of AATTGTAGTT ?
-- reply 0.979

-- ask For the sequence shown here, ATGGTCGCGC , give the reported switch fluorescence ratio.
-- reply 0.993

-- ask Requested field: switch fluorescence ratio. Item: CTGGGGAGGG
-- reply 1

-- ask Consider the sequence TGTGACCGAA and give its measured switch fluorescence ratio.
-- reply 0.979

-- ask Entry CAAGTGCCTG has what switch fluorescence ratio?
-- reply 1.01

-- ask Requested read-out: switch fluorescence ratio. Entry: CGAGAGTGTT
-- reply 0.995

-- ask What does the record list as switch fluorescence ratio for GAATGTCGGG ?
-- reply 0.98

-- ask Recorded switch fluorescence ratio for CTAGGGAGAG , please?
-- reply 0.991

-- ask Need switch fluorescence ratio, item TGGCCCTTGG
-- reply 1

-- ask Any idea what its switch fluorescence ratio is? The sequence is AGCGCTTATG
-- reply 1

-- ask Which switch fluorescence ratio value is on record for GGTTTTATAT ?
-- reply 1.01

-- ask // query switch fluorescence ratio value for entry AGATAGTTGG
-- reply 0.99

-- ask Find the recorded switch fluorescence ratio belonging to CTTGCCTCAG and report it.
-- reply 1.02

-- ask Sample TTGGGGTAAT — what was its switch fluorescence ratio?
-- reply 1.01

-- ask Give its switch fluorescence ratio value. Item: AATTGGAAGT
-- reply 1.01

-- ask # query: switch fluorescence ratio of entry TTAGACGCTT
-- reply 1

-- ask Which switch fluorescence ratio is listed for ATTAGGCGTG ?
-- reply 0.987

-- ask Reported switch fluorescence ratio for TTGATCCAGC : what is it?
-- reply 0.996

-- ask Tell me the measured switch fluorescence ratio of AGTTGTGTAT , please.
-- reply 1.01

-- ask Request the reported switch fluorescence ratio associated with TCTTGGACGA
-- reply 0.991

-- ask Which switch fluorescence ratio value is on record for TGCTGCAGTT ?
-- reply 0.982

-- ask What measured switch fluorescence ratio goes with TTTTGTGTTC ?
-- reply 0.993

-- ask Quick one: switch fluorescence ratio of AGGTGGGGCT ?
-- reply 0.981

-- ask Can you look up the measured switch fluorescence ratio of TTAGTTGGTA for me?
-- reply 0.987

-- ask Item CGTTTGGCAG has what recorded switch fluorescence ratio?
-- reply 1.02

-- ask # switch fluorescence ratio lookup, item AGGTTAGGCT
-- reply 0.989

-- ask # switch fluorescence ratio lookup, item TGGGGTAGGT
-- reply 0.999

-- ask Item under review: CGTAAAAGGC . Reported switch fluorescence ratio?
-- reply 0.994

-- ask Any idea what switch fluorescence ratio was measured for TTAGTAGCTA ?
-- reply 1.01

-- ask What value of switch fluorescence ratio has been reported for the following sequence? AGGTTGAGG
-- reply 1.01

-- ask Which value of switch fluorescence ratio has been reported for ACACGGGGGC in the records?
-- reply 1

-- ask If you can, please state the reported switch fluorescence ratio value of GCCAAAAGGG .
-- reply 1.01

-- ask GET /values?readout=switch fluorescence ratio&item= AGGTTTTTTA
-- reply 1.02

-- ask Quick one: switch fluorescence ratio of AATTTTAGCT ?
-- reply 1.01

-- ask Please give the measured switch fluorescence ratio for this sequence: ATGTGATAGG
-- reply 1.01

-- ask Endpoint output: switch fluorescence ratio of ACGAGGGTCA . Value?
-- reply 1.01

-- ask Would you mind telling me what switch fluorescence ratio value was observed for TCAGATGGTG ?
-- reply 1.02

-- ask Given the entry GGATGTGCG , report its measured switch fluorescence ratio.
-- reply 0.961

-- ask // query switch fluorescence ratio value for entry TATTTTGTGA
-- reply 0.952

-- ask Dear colleague, I am looking for the recorded switch fluorescence ratio of the following sequence: AAGTGGAGTG
-- reply 0.999

-- ask Would you mind telling me what switch fluorescence ratio value was observed for TGCTGAAGAT ?
-- reply 1

-- ask Look up switch fluorescence ratio for this sequence: CGGCGCACAG
-- reply 1.31

-- ask Reported switch fluorescence ratio for GAAGCACGCC : what is it?
-- reply 1.45

-- ask # get_value(readout='switch fluorescence ratio', item= CCTGGAGCGG )
-- reply 1.19

-- ask Field request: switch fluorescence ratio | item: ATGGGCATTA
-- reply 1

-- ask Value lookup for switch fluorescence ratio; key = GGTAGATGCG
-- reply 1.03

-- ask State the recorded switch fluorescence ratio for this entry: ATTGAGTCTG
-- reply 1.02

###

- Test system: ATP;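 further: ATP exposure 15 min at 22 °C before imaging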
- METHOD: switch fluorescence ratio, 500 uM ATP over buffer (Cy3 cluster intensity, sum of 5 cycles each) (fold (ratio)); higher = stronger signal-on switching upon ATP binding; sequences stand for … in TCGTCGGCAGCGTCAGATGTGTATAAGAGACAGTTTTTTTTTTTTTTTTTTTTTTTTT…TC
- ASSAY_CONDITIONS: aptamer strand: ATP DNA aptamer (quencher-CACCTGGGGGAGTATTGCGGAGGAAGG + anchor), 100 nM annealed; ATP concentration: 500 uM
MEASUREMENT_KIND: switch fluorescence ratio
Just the number, please.

-- ask // returns reported switch fluorescence ratio for input TTTTTATTGC
-- reply 1

-- ask # input sequence: TTATGGGTTG ; wanted: its switch fluorescence ratio
-- reply 1

-- ask So what's the measured switch fluorescence ratio for this one? TTAGGTGTCT
-- reply 0.998

-- ask I'd like to know its switch fluorescence ratio. The sequence in question is TTGGAGGGGA
-- reply 1.01

-- ask Sample CGGTCGCGTG — what was its switch fluorescence ratio?
-- reply 0.988

-- ask Please look up its switch fluorescence ratio: GGGCGACGGG
-- reply 0.996

-- ask Suppose we examine the sequence GGGAGGTCAG ; what switch fluorescence ratio value has been reported?
-- reply 0.992

-- ask Find the recorded switch fluorescence ratio belonging to CGGGTCGGGC and report it.
-- reply 0.991

-- ask What does the record list as switch fluorescence ratio for TGGGGCTTAT ?
-- reply 0.987

-- ask I have this sequence here, CAAGTCAAGG , and I need its recorded switch fluorescence ratio.
-- reply 1.01

-- ask Suppose we examine the sequence CTACTTATTT ; what switch fluorescence ratio value has been reported?
-- reply 1.02

-- ask Tell me the measured switch fluorescence ratio of GGGTCTTTGT , please.
-- reply 0.981

-- ask switch fluorescence ratio lookup needed for CAGAAATATT , thanks.
-- reply 1.01

-- ask Requested field: switch fluorescence ratio. Item: GCGATATATG
-- reply 0.978

-- ask Quick one: switch fluorescence ratio of GTATCCTATA ?
-- reply 1

-- ask Look up switch fluorescence ratio for this sequence: CAGGGGGGGA
-- reply 1.01

-- ask Which value of switch fluorescence ratio has been reported for AGCAGGGGGA in the records?
-- reply 1.01

-- ask Need switch fluorescence ratio, item GAAGTGGGTT
-- reply 0.989

-- ask # switch fluorescence ratio lookup, item TTATTCGTTT
-- reply 0.98

-- ask Any idea what its switch fluorescence ratio is? The sequence is TTGTAGTTG
-- reply 0.995

-- ask Requested field: switch fluorescence ratio. Item: TATGGCATGG
-- reply 1

-- ask What value of switch fluorescence ratio has been recorded for this entry: AGGCGATCTG
-- reply 1.01

-- ask Look at this sequence and give its reported switch fluorescence ratio. CGCCGACGGC
-- reply 1.01

-- ask Returns the measured switch fluorescence ratio for the input sequence. Input: AGGGGATAAG
-- reply 0.992

-- ask Any idea what its switch fluorescence ratio is? The sequence is GTTTTTTTGC
-- reply 0.977

-- ask Recorded switch fluorescence ratio of CGGGGAATTG , please.
-- reply 1

-- ask Using the record for TTGGGTATGA , report its switch fluorescence ratio.
-- reply 1.01

-- ask State the recorded switch fluorescence ratio for this entry: AGGGGAGCGT
-- reply 1.02

-- ask // switch fluorescence ratio lookup, key: TTATATCCTG
-- reply 0.974

-- ask Give the measured switch fluorescence ratio of AGGCAGAATC .
-- reply 1.01

-- ask Query (sequence): GATGAAGATT ; field requested: switch fluorescence ratio
-- reply 1.01

-- ask Form field: reported switch fluorescence ratio of AGTTATTGCC
-- reply 1.01
